Target: UniProt:P21397
Sequence (P21397 whole entry): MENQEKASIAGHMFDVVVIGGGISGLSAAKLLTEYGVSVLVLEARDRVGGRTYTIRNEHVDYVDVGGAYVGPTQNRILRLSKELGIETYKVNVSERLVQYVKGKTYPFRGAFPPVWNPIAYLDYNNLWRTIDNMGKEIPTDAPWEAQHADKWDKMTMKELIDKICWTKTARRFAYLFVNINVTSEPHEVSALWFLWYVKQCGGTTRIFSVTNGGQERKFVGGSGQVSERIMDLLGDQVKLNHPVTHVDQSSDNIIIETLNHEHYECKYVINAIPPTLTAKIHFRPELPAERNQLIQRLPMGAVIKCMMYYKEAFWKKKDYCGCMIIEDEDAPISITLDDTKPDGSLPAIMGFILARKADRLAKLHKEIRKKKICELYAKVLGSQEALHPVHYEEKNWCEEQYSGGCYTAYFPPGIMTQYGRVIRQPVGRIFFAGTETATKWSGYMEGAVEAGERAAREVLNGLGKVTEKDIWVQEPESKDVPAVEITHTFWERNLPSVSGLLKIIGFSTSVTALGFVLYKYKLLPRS
Assay: Inhibition of recombinant human MAO-A assessed as reduction of H2O2 production from oxidative deamination of tyramine at 10 uM preincubated for 2 hrs followed by substrate addition
Details: probe tyramine
READOUT_LABEL: inhibition at 2 h, 10 µM

Field request: inhibition at 2 h, 10 µM | item: Cl.NCc1cc(Oc2cccc(C(=O)N3C[C@@H](O)[C@H](F)C3)c2)nc(C(F)(F)F)c1 (racemic)
< 10%

* * *

Target: UniProtKB P28300
Sequence (P28300 whole entry): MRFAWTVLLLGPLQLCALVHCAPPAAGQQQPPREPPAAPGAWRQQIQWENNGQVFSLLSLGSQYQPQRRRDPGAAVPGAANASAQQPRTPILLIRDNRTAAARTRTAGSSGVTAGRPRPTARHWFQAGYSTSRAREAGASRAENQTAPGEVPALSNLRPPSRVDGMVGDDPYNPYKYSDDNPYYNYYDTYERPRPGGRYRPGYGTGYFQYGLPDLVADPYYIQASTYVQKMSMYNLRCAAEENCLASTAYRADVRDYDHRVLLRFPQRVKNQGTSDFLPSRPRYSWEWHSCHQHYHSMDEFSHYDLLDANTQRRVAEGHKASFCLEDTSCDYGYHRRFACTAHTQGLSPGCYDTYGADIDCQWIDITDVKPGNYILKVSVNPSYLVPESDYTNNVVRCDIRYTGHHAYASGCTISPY
Experiment: Inhibition of human LOX expressed in HEK cells assessed as reduction of H2O2 production from oxidative deamination of DAP preincubated for 2 hrs followed by substrate addition in presence of 0.1% BSA measured every 2 mins for 1 hr by amplex red reagent-based fluorescence assay
Format: cell-based
READOUT_LABEL: pIC50
The meaning of pIC50 here: minus log10 of the concentration in molar units.

Which measured pIC50 value corresponds to Cl.NCc1cc(Oc2cccc(C(=O)N3C[C@@H](O)[C@H](F)C3)c2)nc(C(F)(F)F)c1 (racemic) ?
4.46

The reported numbers originate from ChEMBL document CHEMBL4049456.
